procedure.summary: Inhibition of mouse GAT2 expressed in HEK293 cells assessed as reduction in [3H]GABA uptake preincubated for 25 mins followed by [3H]GABA addition and measured after 10 mins by liquid scintillation counting method

compound	quantity.unit	IC50
O=C(O)C1CCN(CCON=Cc2ccccc2-c2ccc(Cl)cc2Cl)C1 (stereo unspecified)	µM	53.7
